Origin of the recorded values: PubChem BioAssay (NCI)

- Tested on: BT-549 breast
- Assay: NCI tumour cell line growth inhibition, 48 h
Where a SMILES comes first, the peptide text is derived from it. [ ]: non-standard residue; d: D form. The star is where a group is joined. ξ: configuration not given here. ξD = NC(CC(=O)O)C(=O)O; Ac3c = NC1(C(=O)O)CC1; Boc = CC(C)(C)OC(=O)*; OBn = c1ccc(CO*)cc1
Task for the reader: assign each of the following molecules its reported TGI.

Molecule	TGI
COC(=O)C1(NC(=O)C(CC(=O)OCc2ccccc2)NC(=O)OC(C)(C)C)CC1 (configuration not stated) (Boc-[ξD](OBn)-[Ac3c]-OMe)	> 100 µM
c1cc(C[S+]2CCCC2)ccc1C[S+]1CCCC1	> 100 µM
ON(CCc1ccncc1)Cc1ccccc1	> 100 µM
O=S1(=O)N(Cc2ccccc2)[C@@H](Cc2ccccc2)C2O[C@H]2[C@H](Cc2ccccc2)N1Cc1ccccc1 (some centres not stated)	> 7.5 µM

Each molecule below has a recorded value; state its TGI.
1. Cn1c(=O)c(Oc2cccc(F)c2)cc2cnc(NC3CCOCC3)nc21
2. COc1ccc(/C=C2\CC3C4CC=C5C[C@@H](O)CC[C@]5(C)C4CC[C@]3(C)\C2=N\O)cc1OC (some centres not stated)
3. CCCC(CC)c1c(O)c(O)c(C(CC)CCC)c(C(CC)CCC)c1C(CC)CCC (configuration not stated)

Reply:
> 25 µM
> 100 µM
> 10 µM
